pIC50: −log10 of the molar value.
What follows is literature data on pIC50 for USP14 (Homo sapiens (Human), UniProt P54578).

Cc1cc(C(=O)CN2CCC(O)CC2)c(C)n1-c1ccc(O)cc1	< 5.30

Give one value of pIC50 per listed compound.
1. Cc1cc(C(=O)CC(F)(F)F)c(C)n1-c1ccc(Cl)cc1
2. Cc1cc(C(=O)CN2CCCC2)c(C)n1-c1ccc(C#N)cc1
3. Cc1nc2c(C(=O)CN3CCCCC3)c(C)n(-c3ccc(C#N)cc3)c2cc1CCC(N)=O
4. Cc1c(C(=O)CN2CCCCC2)c2ncccc2n1-c1ccc(Cl)nc1
5. Cc1c(C(=O)CN2CCC(O)CC2)c2ccc(F)cc2n1-c1ccc(Cl)cc1
6. Cc1cc(C(=O)CN2CCCCC2)c(C)n1-c1ccc(C(=O)O)cc1

OUTPUT:
["< 5.00", "> 6.30", "> 6.30", "5.30 to 6.30", "< 5.30", "< 5.30"]
